The reported numbers originate from patent US20240034774A1.

target: BSA (UniProt P02769 25-607); experiment: single-point ELISA, BSA control
Test readout: ELISA A450
Respond with the figure and its unit, in that order.

Fill in ELISA A450 for each of the 2 binders listed.
1. 1.1.35-1 (antibody, human IgG1, kappa, V domains shown) VH: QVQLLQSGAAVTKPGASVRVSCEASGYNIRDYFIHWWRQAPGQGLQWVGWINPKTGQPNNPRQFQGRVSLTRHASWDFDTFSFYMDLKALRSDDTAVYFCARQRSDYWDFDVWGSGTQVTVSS VL: DIQMTQSPSSLSASVGDRVTITCQANGYLNWYQQKPGKAPKLLIYDGSNLETGVPSRFSGSRWGQEYTLTISSLQPEDIATYFCQVYEFVGPGTNLDIKR
2. 1.34.35-1 (antibody, human IgG1, kappa, V domains shown) VH: QVQLVQSGAEVKKPGASVRVSCKASGYNIRDYFIHWWRQAPGQGLQWVGWINPKTGQPNNPRQFQGRVTLTRHASWDFDTFSFYMDLKALRSDDTAVYFCARQRTDYWDFDVWGSGTQVTVSS VL: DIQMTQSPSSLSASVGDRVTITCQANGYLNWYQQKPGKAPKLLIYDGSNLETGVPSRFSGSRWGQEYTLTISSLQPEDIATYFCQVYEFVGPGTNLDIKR

["0.08 A450", "0.06 A450"]

Consider the following items and state reported ELISA A450 for each.
1. 1.32.35-1 (antibody, human IgG1, kappa, V domains shown) VH: QVQLVQSGAEVTKPGASVRVSCEASGYNIRDYFIHWWRQAPGQGLQWVGWINPKTGQPNNPRQFQGRVSLTRHASWDFDTFSFYMDLKALRSDDTAVYFCARQRTDYWDFDVWGSGTQVTVSS VL: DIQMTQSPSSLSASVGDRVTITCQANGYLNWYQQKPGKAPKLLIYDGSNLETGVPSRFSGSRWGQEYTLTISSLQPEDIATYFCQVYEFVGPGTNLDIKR
2. 1.33.35-1 (antibody, human IgG1, kappa, V domains shown) VH: QVQLVQSGAEVKKPGASVRVSCKASGYNIRDYFIHWWRQAPGQGLQWVGWINPKTGQPNNPRQFQGRVTLTRHASWDFDTFSFYMDLKALRSDDTATYFCARQRSDYWDFDVWGSGTQVTVSS VL: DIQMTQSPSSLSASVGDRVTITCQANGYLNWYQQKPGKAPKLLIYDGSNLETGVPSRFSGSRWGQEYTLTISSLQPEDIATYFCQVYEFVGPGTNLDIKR

0.06 A450
0.07 A450
